Assay: Solubility in water, methanol, cyclohexane and ethyl acetate by HPLC
Type: physicochemical
Settings: water; Table 5; read-out: solubility in water
Property: solubility at 48 h

{"Chemical Structure": "CCOc1ccc2c(=O)c(-c3ccc(OS(=O)(=O)c4ccc5ccccc5c4)cc3)coc2c1", "Property": "solubility at 48 h", "Observed Result": "< 0.059 µg/mL"}
{"Chemical Structure": "COc1ccc2c(=O)c(-c3ccc(OS(=O)(=O)c4ccc5ccccc5c4)cc3)coc2c1", "Property": "solubility at 48 h", "Observed Result": "< 0.059 µg/mL"}

----------
Assay: Solubility in water, methanol, cyclohexane and ethyl acetate by HPLC
Type: physicochemical
Conditions: organic solvent or mixture, thermodynamic from solid; methanol, 37 °C, shaken 48 h, HPLC; read-out: solubility methanol
solubility at 48 h listing for selected molecules.

{"Chemical Structure": "COc1ccc2c(=O)c(-c3ccc(OS(=O)(=O)c4ccc5ccccc5c4)cc3)coc2c1", "Unit Of Measurement": "µg/mL", "solubility at 48 h": 824}
{"Chemical Structure": "CCOc1ccc2c(=O)c(-c3ccc(OS(=O)(=O)c4ccc5ccccc5c4)cc3)coc2c1", "Unit Of Measurement": "µg/mL", "solubility at 48 h": 2470}

----------
Experiment: Solubility in water, methanol, cyclohexane and ethyl acetate by HPLC
Format: physicochemical
Details: thermodynamic from solid; water, 37 °C, shaken 48 h, HPLC; read-out: solubility water

{"Chemical Structure": "COc1ccc2c(=O)c(-c3ccc(OS(=O)(=O)c4ccc5ccccc5c4)cc3)coc2c1", "solubility at 48 h": "< 0.059 µg/mL"}
{"Chemical Structure": "CCOc1ccc2c(=O)c(-c3ccc(OS(=O)(=O)c4ccc5ccccc5c4)cc3)coc2c1", "solubility at 48 h": "< 0.059 µg/mL"}
